Entry source: patent US6924302B2

Form field: IC50 (one value per entry).
- tested-on: VEGF-R (vascular endothelial growth factor receptor-2) (Rattus norvegicus)
- Construct: polyhistidine (6xHIS) (N)
- Sequence (O08775 786-1343): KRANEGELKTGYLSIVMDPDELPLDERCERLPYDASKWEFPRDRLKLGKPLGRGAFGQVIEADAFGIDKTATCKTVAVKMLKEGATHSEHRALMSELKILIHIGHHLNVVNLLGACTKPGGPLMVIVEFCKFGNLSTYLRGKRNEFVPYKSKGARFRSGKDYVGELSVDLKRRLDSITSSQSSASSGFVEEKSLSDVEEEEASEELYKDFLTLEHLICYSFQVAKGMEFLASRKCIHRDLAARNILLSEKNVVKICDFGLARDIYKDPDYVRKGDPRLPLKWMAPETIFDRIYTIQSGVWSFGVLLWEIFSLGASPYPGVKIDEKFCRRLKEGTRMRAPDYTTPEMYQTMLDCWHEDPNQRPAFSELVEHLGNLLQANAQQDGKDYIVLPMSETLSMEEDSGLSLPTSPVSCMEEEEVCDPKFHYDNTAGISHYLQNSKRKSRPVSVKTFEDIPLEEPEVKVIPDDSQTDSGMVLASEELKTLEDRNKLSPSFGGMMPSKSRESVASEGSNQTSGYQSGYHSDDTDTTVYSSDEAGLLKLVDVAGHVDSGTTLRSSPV
- test-protocol: VEGF-R Screening Assay
- Assay type: biochemical
- measurement-parameters: Table 1; read-out: VEGF-R IC50

{"compound-string": "Cc1ccsc1C(=O)n1nc(Nc2ccc(-n3ccnc3)cc2)nc1N", "IC50 / µM": 0.0736}
{"compound-string": "Cc1ccc(F)c(C(=O)n2nc(Nc3ccc(-n4cncn4)cc3)nc2N)c1F", "IC50 / µM": 0.26}
{"compound-string": "CCc1ccc(C(=O)n2nc(Nc3ccc(N4CCN(C)CC4)cc3)nc2N)s1", "IC50 / µM": 0.033}
{"compound-string": "Nc1nc(Nc2ccc(S(=O)(=O)N3CCCCC3)cc2)nn1C(=O)c1cccs1", "IC50 / µM": 0.0353}
{"compound-string": "Nc1nc(Nc2ccc(S(N)(=O)=O)cc2)nn1C(=O)c1ccccc1F", "IC50 / µM": 0.387}
{"compound-string": "Nc1nc(Nc2ccc(S(N)(=O)=O)cc2)nn1C(=O)C1CCCCCC1", "IC50 / µM": 0.355}
{"compound-string": "Cc1cccc(C)c1C(=O)n1nc(Nc2ccc(S(N)(=O)=O)cc2)nc1N", "IC50 / µM": 20}
{"compound-string": "Cc1ccsc1C(=O)n1nc(Nc2ccc(-n3cnnc3)cc2)nc1N", "IC50 / µM": 1.1}
